# TEST_TARGET: CaMet15NHp (Candida albicans, UniProt Q59US5)
# Construct: gene MET15; mostly homotetramer
# Sequence (Q59US5 2-440): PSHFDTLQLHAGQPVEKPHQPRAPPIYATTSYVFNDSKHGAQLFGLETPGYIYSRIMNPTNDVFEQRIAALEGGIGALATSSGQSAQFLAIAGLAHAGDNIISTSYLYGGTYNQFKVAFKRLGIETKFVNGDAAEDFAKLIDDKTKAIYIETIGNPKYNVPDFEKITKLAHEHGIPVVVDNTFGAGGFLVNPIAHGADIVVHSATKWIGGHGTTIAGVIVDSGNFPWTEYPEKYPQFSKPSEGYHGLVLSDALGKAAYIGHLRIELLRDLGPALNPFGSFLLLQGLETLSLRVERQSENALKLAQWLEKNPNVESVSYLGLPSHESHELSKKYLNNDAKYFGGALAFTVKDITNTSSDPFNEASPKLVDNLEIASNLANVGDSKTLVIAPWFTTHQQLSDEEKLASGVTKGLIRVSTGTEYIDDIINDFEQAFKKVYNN
# PROTOCOL_DESCRIPTION: RP-HPLC-DAD of L-homocysteine derivatized with DTNB
# Assay type: biochemical
# CONDITIONS_USED: read-out: % inhibition at 10 mM
MEASURE: inhibition at 10000 µM

Please review the following examples before continuing.
# COMPOUND, MEASURE, VALUE_REPORTED
rows = [
    ("N[C@@H](CCNC(=O)c1ccccc1)C(=O)O [BzDAB]", "inhibition at 10000 µM", "~44%"),
    ("CSCC[C@H](N)C(=O)O [L-Met, L-methionine]", "inhibition at 10000 µM", "< 15%"),
    ("CC(C)(S)[C@H](N)C(=O)O [L-PEN, L-penicillamine]", "inhibition at 10000 µM", "> 50%"),
]

Turning now to a further record.
Data request, read-out inhibition at 10000 µM, for CC(=O)NCC[C@H](N)C(=O)O [AcDAB, N[4]-acetyl-(S)−2,4-diaminobutanoic acid]
~70%

These entries and their values trace back to paper PMC11568248.
